Reference source for all entries: PubChem BioAssay AID1159580

test: chemical genetic growth profiling, strain panel (AID 1159580);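 further: tested at 20 µM; growth read once vehicle control cultures reached saturation at 30 °C; 1 = growth at the plate median or of vehicle wells; lower values mean less growth of the strain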; conditions: S. cerevisiae deletion strains, growth OD, locus YDL074C, strain BRE1, hits give low values
The campaign covered roughly 5,500 compounds. About 2,000 (36%) were called active. About 18% were inconclusive and are not listed. The list shows a part of the results.
attribute_measured: normalized growth

C[C@]12C=CC(=O)C=C1CCC1C2C(=O)C[C@@]2(C)C1CC[C@]2(O)C(=O)CO (stereo partly specified) = 0.965
COc1c2occc2cc2ccc(=O)oc12 = 0.908
C[C@]12CCC3C(CC[C@H]4C[C@@H](O)CC[C@]34C)C1CCC2=O (stereo partly specified) = 0.792
CC(=O)OC1CCC23C(=O)OC45CCC(C6=CC(=O)OC6)C4(C)CCC2C5CCC3(O)C1 (stereo unspecified) = 1.1
CC1(C)S[C@@H]2[C@H](NC(=O)COc3ccccc3)C(=O)N2[C@H]1C(=O)O = 1.01
CC(C(=O)O)c1ccc(N2Cc3ccccc3C2=O)cc1 (stereo unspecified) = 1.02
C[C@]12CCC3c4ccc(O)cc4CCC3C1CC[C@@H]2OC(=O)CCC1CCCC1 (stereo partly specified) = 0.97
O=C(CCCN1CC=C(n2c(=O)[nH]c3ccccc32)CC1)c1ccc(F)cc1 = 0.984
COc1ccc2c(c1)[nH]c1c(C)nccc12 = 1.03
Cc1cccc(N(C)C(=S)Oc2ccc3ccccc3c2)c1 = 0.948
C[C@]12CCC3C(CC[C@H]4CC(=O)CC[C@]34C)C1CCC2=O (stereo partly specified) = 0.795
CC(C)=CCC1=C(O)c2ccccc2C(=O)C1=O = 0.994
Cc1ncc([N+](=O)[O-])n1CCO = 1.02
CCCCC(=O)N(Cc1ccc(-c2ccccc2-c2nn[nH]n2)cc1)[C@H](C(=O)O)C(C)C = 1
CCC(=O)O[C@H]1CCC2C3CCc4cc(O)ccc4C3CC[C@@]21C (stereo partly specified) = 0.447
C[C@]12C=CC(=O)C=C1CCC1C2CC[C@]2(C)C(=O)CCC12 (stereo partly specified) = 1.01
